Study the reported IC50 values for Dual specificity protein phosphatase 1 (Homo sapiens) given below; they originate from different publications.
test target: Dual specificity protein phosphatase 1 (Homo sapiens)
Sequence (P28562 whole entry): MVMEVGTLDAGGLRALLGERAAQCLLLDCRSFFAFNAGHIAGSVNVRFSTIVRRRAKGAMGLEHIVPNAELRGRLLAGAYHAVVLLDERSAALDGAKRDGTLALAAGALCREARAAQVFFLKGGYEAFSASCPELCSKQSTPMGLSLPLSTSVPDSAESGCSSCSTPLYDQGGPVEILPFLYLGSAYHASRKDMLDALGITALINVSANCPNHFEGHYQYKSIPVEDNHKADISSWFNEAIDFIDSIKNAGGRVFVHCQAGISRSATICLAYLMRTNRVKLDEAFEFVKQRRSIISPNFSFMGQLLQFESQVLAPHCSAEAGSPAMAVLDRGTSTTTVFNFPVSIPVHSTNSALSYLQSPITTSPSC
I'd appreciate it if you marked entries yes (1) when IC50 is lower than 20 µM and no (0) when it is not.

[[record]]
compound = "N#CCC(=O)NC(=O)NCC1CC1"
cat = "no (0)"

[[record]]
compound = "O=C(OC1CCCCC1)c1ccc2c(c1)C1C=CCC1C(C(=O)O)N2 (centres undefined)"
cat = "yes (1)"

[[record]]
compound = "Cn1c(N)c(C(=O)COC(=O)c2cc(C3CC3)nc3ccccc23)c(=O)n(Cc2ccccc2)c1=O"
cat = "no (0)"

[[record]]
compound = "CCOc1cc(/C=C(/C#N)c2ccc(F)cc2)ccc1OCc1ccc(C(=O)O)o1"
cat = "no (0)"

[[record]]
compound = "Nc1ccc2ncccc2c1N"
cat = "no (0)"

[[record]]
compound = "Cc1ccc(NC(=O)COC(=O)c2ccc3c(c2)NC(=O)C2CCCN32)cc1C (centres undefined)"
cat = "no (0)"

[[record]]
compound = "CCc1ccc(NC(=O)CSc2nc3ccccc3c(=O)n2CCN2CCOCC2)cc1"
cat = "no (0)"

[[record]]
compound = "Cn1c(=O)c(C(=O)COC(=O)c2cc(-c3ccco3)nc3ccccc23)c(N)n(Cc2ccccc2)c1=O"
cat = "yes (1)"

[[record]]
compound = "CC(C)Cn1c(N)c(C(=O)COC(=O)c2cc(-c3ccco3)nc3ccccc23)c(=O)n(C)c1=O"
cat = "no (0)"

[[record]]
compound = "COc1cccc2c(C)c(C(=O)O)[nH]c12"
cat = "no (0)"

[[record]]
compound = "COc1ccc(Cn2c(C)nc3c(c2=O)c2nc4ccccc4nc2n3Cc2ccco2)cc1"
cat = "yes (1)"

[[record]]
compound = "O=C(c1ccc(-c2ccccc2)cc1)N1CCN(Cc2ccccn2)CC1"
cat = "no (0)"

[[record]]
compound = "CCOC(=O)c1ccc2c(c1)C1C=CCC1C(C(=O)O)N2 (centres undefined)"
cat = "yes (1)"

[[record]]
compound = "CC(C)(C)N1C(=O)Cc2c1nc(N)c1c(N)nc(N3CCCCC3CO)c(C#N)c21 (centres undefined)"
cat = "no (0)"

[[record]]
compound = "CC1CCN(S(=O)(=O)c2ccc3c(c2)c(=O)c(C(=O)NC2CCCC2)cn3C)CC1"
cat = "no (0)"

[[record]]
compound = "CCCn1nnc(NC(=O)c2cc(Br)cc(Br)c2OC)n1"
cat = "no (0)"

[[record]]
compound = "CC(C)Cn1c(N)c(C(=O)COC(=O)c2cc(-c3ccccc3)nc3ccccc23)c(=O)n(C)c1=O"
cat = "no (0)"

[[record]]
compound = "Cn1c(N)c(C(=O)COC(=O)c2cc(-c3ccco3)nc3ccccc23)c(=O)n(Cc2ccccc2)c1=O"
cat = "yes (1)"

[[record]]
compound = "Cn1c(N)c(C(=O)COC(=O)c2cc(C(F)(F)F)nc3c(C(F)(F)F)cccc23)c(=O)n(Cc2ccccc2)c1=O"
cat = "no (0)"

